assay.target: JNK1 (Homo sapiens, UniProt P45983)
Sequence (P45983 whole entry, species assumed): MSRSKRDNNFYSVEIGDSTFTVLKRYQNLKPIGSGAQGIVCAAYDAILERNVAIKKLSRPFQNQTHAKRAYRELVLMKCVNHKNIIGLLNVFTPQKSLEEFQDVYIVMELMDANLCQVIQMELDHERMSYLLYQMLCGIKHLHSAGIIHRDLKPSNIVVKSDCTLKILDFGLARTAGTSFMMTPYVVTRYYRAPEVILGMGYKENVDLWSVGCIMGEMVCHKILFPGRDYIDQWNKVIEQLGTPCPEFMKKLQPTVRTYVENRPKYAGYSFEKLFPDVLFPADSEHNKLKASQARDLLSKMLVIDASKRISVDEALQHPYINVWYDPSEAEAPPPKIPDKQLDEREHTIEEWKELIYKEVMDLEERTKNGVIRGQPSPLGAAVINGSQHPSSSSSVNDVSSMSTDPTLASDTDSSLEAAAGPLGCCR
reported.endpoint: IC50 (µM)
Lab book: enter the figure in µM, no units written.

query: For the compound Cn1c(=O)c(-c2c(Cl)cccc2Cl)cc2cnc(Nc3ccc(OCCN)cc3)nc21 , what IC50 is on record?
result: 2.4

----------
assay.target: Abl (Homo sapiens, UniProt P00519)
Sequence (P00519 whole entry, species assumed): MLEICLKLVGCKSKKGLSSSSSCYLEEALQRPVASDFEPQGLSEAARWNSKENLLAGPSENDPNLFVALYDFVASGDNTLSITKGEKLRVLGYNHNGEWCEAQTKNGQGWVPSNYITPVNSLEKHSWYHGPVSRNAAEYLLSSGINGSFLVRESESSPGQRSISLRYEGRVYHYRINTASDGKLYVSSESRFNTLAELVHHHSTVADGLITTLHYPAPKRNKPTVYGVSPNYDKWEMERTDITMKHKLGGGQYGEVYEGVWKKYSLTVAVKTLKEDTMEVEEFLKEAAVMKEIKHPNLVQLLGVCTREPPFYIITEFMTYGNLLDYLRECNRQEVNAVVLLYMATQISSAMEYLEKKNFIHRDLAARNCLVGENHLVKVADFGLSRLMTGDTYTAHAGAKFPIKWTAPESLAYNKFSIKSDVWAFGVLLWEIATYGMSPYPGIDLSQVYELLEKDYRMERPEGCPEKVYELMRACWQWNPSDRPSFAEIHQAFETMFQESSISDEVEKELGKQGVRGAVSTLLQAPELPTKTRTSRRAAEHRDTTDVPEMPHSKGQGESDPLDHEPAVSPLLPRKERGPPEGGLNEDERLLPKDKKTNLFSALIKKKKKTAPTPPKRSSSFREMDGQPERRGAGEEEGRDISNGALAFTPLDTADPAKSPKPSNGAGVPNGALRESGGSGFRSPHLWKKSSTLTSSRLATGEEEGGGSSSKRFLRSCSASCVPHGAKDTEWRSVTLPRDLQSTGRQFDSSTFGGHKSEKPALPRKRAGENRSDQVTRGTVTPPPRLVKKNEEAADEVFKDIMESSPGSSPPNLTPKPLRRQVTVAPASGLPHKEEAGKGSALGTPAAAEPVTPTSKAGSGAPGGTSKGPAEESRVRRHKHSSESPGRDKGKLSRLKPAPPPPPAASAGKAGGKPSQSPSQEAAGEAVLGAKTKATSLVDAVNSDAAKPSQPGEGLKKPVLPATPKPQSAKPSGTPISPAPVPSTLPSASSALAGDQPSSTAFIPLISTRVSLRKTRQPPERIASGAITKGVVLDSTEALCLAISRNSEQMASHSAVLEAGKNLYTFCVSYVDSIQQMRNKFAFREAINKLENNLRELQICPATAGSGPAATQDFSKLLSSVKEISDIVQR
reported.endpoint: pIC50
Lab note — pIC50 values are minus log10 of concentrations in M.

query: Could you tell me which pIC50 is on file for Cn1c(=O)c(-c2c(Cl)cccc2Cl)cc2cnc(Nc3ccc(OCCN)cc3)nc21 ?
result: 8.85

----------
Target protein (sequence): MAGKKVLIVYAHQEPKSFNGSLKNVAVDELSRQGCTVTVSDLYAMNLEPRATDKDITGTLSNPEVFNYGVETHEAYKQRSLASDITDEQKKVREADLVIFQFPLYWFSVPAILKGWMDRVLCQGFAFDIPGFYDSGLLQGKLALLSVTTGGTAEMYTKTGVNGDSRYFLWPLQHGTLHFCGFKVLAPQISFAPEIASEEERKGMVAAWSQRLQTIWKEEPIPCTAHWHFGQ
reported.endpoint: IC50

query: Which IC50 value belongs to NCCCn1cc(C2=C(c3c[nH]c4ccccc34)C(=O)NC2=O)c2ccccc21 [compound C] ?
result: ~16 µM
